Tested on: velvetleaf (Abutilon theophrasti)
Test: Test A preemergence, velvetleaf
Assay type: in vivo
Details: 500 g ai/ha, 0 to 100 scale (0 no effect, 100 complete control)
Please go through the items and note down their Plant response rating, Velvetleaf.
Answers are plain numbers.

See these solved cases before continuing.
[
  {
    "compound": "CCn1c(=O)c(CS(=O)(=O)C2=NOC(C)(C)C2)nc2cccnc21 [Compound 57]",
    "quantitative.result": 0
  },
  {
    "compound": "Cn1c(=O)c(CS(=O)(=O)C2=NOC(C)(C)C2)c(C(F)(F)F)c2ccccc21 [Compound 1]",
    "quantitative.result": 0
  },
  {
    "compound": "CC1(C)CC(S(=O)(=O)Cc2c(C(F)(F)F)nc3n(c2=O)CCCO3)=NO1 [Compound 4]",
    "quantitative.result": 90
  },
  {
    "compound": "CC1(C)CC([S+]([O-])Cc2c(C(F)(F)C(F)(F)F)nc3n(c2=O)CCS3)=NO1 (centres unmarked) [Compound 41]",
    "quantitative.result": 0
  },
  {
    "compound": "CC1(C)CC(S(=O)(=O)Cc2c(C(F)(F)F)nc3n(c2=O)CCCC3)=NO1 [Compound 8]",
    "quantitative.result": 90
  }
]

Please give Plant response rating, Velvetleaf for each item listed below.
1. CCn1c(=O)c(C[S+]([O-])C2=NOC(C)(C)C2)nc2ccccc21 (centres unmarked) [Compound 29]
2. CC1(C)CC(S(=O)(=O)Cc2c(C(F)(F)F)nc3n(c2=O)CCO3)=NO1 [Compound 2]

RESULT:
1: 0; 2: 90

QUERY: Quick check: Plant response rating, Velvetleaf on velvetleaf (Abutilon theophrasti), item CC1(C)CC(S(=O)(=O)Cc2c(C(F)(F)F)nc3cccnn3c2=O)=NO1 [Compound 45] ?
RESULT: 0

* * *

System: morningglory (Ipomoea spp.)
Assay: Test A postemergence, morningglory
Type: in vivo
Details: 500 g ai/ha, 0 to 100 scale (0 no effect, 100 complete control)
Label criterion met when Plant response rating, Morningglory >= 40; otherwise criterion not met.

Worked cases, answers included:
[
  {
    "compound": "CC1(C)CC([S+]([O-])Cc2c(C(F)(F)F)nc3n(c2=O)CCCO3)=NO1 (centres unmarked) [Compound 3]",
    "category": "criterion not met"
  },
  {
    "compound": "CC1(C)CC(S(=O)(=O)Cc2c(C(F)(F)C(F)(F)F)nc3n(c2=O)CCCO3)=NO1 [Compound 55]",
    "category": "criterion not met"
  },
  {
    "compound": "CC1(C)CC(S(=O)(=O)Cc2c(C(F)(F)F)nc3cccnn3c2=O)=NO1 [Compound 45]",
    "category": "criterion not met"
  },
  {
    "compound": "CC1(C)CC([S+]([O-])Cc2c(C(F)(F)F)nc3cnccn3c2=O)=NO1 (centres unmarked) [Compound 54]",
    "category": "criterion not met"
  }
]

QUERY: Threshold query (Plant response rating, Morningglory >= 40) on Cn1c(=O)c(CS(=O)(=O)C2=NOC(C)(C)C2)c(C(F)(F)F)c2ccccc21 [Compound 1]
RESULT: criterion not met

QUERY: Threshold query (Plant response rating, Morningglory >= 40) on CC1(C)CC(S(=O)(=O)Cc2c(C(F)(F)F)nc3n(c2=O)CCCC3)=NO1 [Compound 8]
RESULT: criterion met

QUERY: Threshold query (Plant response rating, Morningglory >= 40) on CC1(C)CC(S(=O)(=O)Cc2c(C(F)(F)C(F)(F)F)nc3n(c2=O)CCC3)=NO1 [Compound 22]
RESULT: criterion met

* * *

Please go through the items and note down their Plant response rating, Bromegrass, Downy.
System: downy bromegrass (Bromus tectorum)
Experiment: Test B preemergence, downy bromegrass
Format: in vivo
Conditions: 31 g ai/ha, scale 0 to 100
One number for each entry.

[
  {
    "compound.structure": "CC1(C)CC(S(=O)(=O)Cc2c(C(F)(F)F)nc3ccsn3c2=O)=NO1",
    "assay.metric": "Plant response rating, Bromegrass, Downy",
    "quantitative.result": 0
  }
]

Please give Plant response rating, Bromegrass, Downy for each item listed below.
1. CC1(C)CC(S(=O)(=O)Cc2c(C(F)(F)F)nc3n(c2=O)CCO3)=NO1
2. CC1(C)CC(S(=O)(=O)Cc2c(C(F)(F)F)nc3n(c2=O)CCC3)=NO1
3. CC1(C)CC(S(=O)(=O)Cc2c(C(F)(F)C(F)(F)F)nc3n(c2=O)CCC3)=NO1
4. CC1(C)CC(S(=O)(=O)Cc2c(C(F)(F)C(F)(F)F)nc3n(c2=O)CCCC3)=NO1
5. CC1(C)CC(S(=O)(=O)Cc2c(C(F)(F)Cl)nc3n(c2=O)CCC3)=NO1

RESULT:
[0, 0, 0, 0, 0]

Please give Plant response rating, Bromegrass, Downy for each item listed below.
1. CC1(C)CC(S(=O)(=O)Cc2c(C(F)(F)F)nc3n(c2=O)CCCC3)=NO1
2. CC1(C)CC(S(=O)(=O)Cc2c(C(F)(F)F)nc3n(c2=O)CCS3)=NO1

RESULT:
1: 0; 2: 20

* * *

Test system: ducksalad (Heteranthera limosa)
Assay: Test B flooded paddy test, ducksalad
Format: in vivo
Conditions: Flood, 250 g ai/ha; scale 0 to 100
Please go through the items and note down their Plant response rating, Ducksalad.
Numbers only.

[
  {
    "molecule": "CC1(C)CC([S+]([O-])Cc2c(C(F)(F)F)nc3ccon3c2=O)=NO1 (stereo not drawn) [Compound 43]",
    "experimental.target": "ducksalad (Heteranthera limosa)",
    "Plant response rating, Ducksalad": 25
  },
  {
    "molecule": "CC1(C)CC([S+]([O-])Cc2c(C(F)(F)F)nc3cnccn3c2=O)=NO1 (stereo not drawn) [Compound 54]",
    "experimental.target": "ducksalad (Heteranthera limosa)",
    "Plant response rating, Ducksalad": 0
  },
  {
    "molecule": "Cc1cc2nc(C(F)(F)F)c(C[S+]([O-])C3=NOC(C)(C)C3)c(=O)n2o1 (stereo not drawn) [Compound 50]",
    "experimental.target": "ducksalad (Heteranthera limosa)",
    "Plant response rating, Ducksalad": 0
  },
  {
    "molecule": "Cc1cc2nc(C(F)(F)F)c(CS(=O)(=O)C3=NOC(C)(C)C3)c(=O)n2o1 [Compound 53]",
    "experimental.target": "ducksalad (Heteranthera limosa)",
    "Plant response rating, Ducksalad": 0
  },
  {
    "molecule": "CC1(C)CC(S(=O)(=O)Cc2c(C(F)(F)F)nc3cnccn3c2=O)=NO1 [Compound 52]",
    "experimental.target": "ducksalad (Heteranthera limosa)",
    "Plant response rating, Ducksalad": 0
  }
]

Please give Plant response rating, Ducksalad for each item listed below.
1. CC1(C)CC(S(=O)(=O)Cc2c(C(F)(F)F)nc3ccccn3c2=O)=NO1 [Compound 7]
2. CC1(C)CC(S(=O)(=O)Cc2c(C(F)(F)C(F)(F)F)nc3n(c2=O)CCCC3)=NO1 [Compound 21]
3. CC1(C)CC(S(=O)(=O)Cc2c(C(F)(F)F)nc3n(c2=O)CCCO3)=NO1 [Compound 4]
4. CCn1c(=O)c(C[S+]([O-])C2=NOC(C)(C)C2)nc2cccnc21 (stereo not drawn) [Compound 38]

RESULT:
1: 0; 2: 0; 3: 0; 4: 0

Please give Plant response rating, Ducksalad for each item listed below.
1. CC1(C)CC(S(=O)(=O)Cc2c(C(F)(F)F)nc3ccsn3c2=O)=NO1 [Compound 16]
2. CC1(C)CC(S(=O)(=O)Cc2c(C(F)(F)F)nc3n(c2=O)CCO3)=NO1 [Compound 2]
3. Cn1c(=O)c(CS(=O)(=O)C2=NOC(C)(C)C2)c(C(F)(F)F)c2ccccc21 [Compound 1]
4. CC1(C)CC(S(=O)(=O)Cc2c(C(F)(F)F)nc3n(c2=O)CCC3)=NO1 [Compound 11]
5. CCn1c(=O)c(CS(=O)(=O)C2=NOC(C)(C)C2)nc2ccccc21 [Compound 28]
6. CC1(C)CC(S(=O)(=O)Cc2c(C(F)(F)F)nc3n(c2=O)CCS3)=NO1 [Compound 6]

RESULT:
40
0
0
35
0
65

* * *

Test system: large crabgrass (Digitaria sanguinalis)
Assay: Test A postemergence, large crabgrass
Assay type: in vivo
Conditions: 500 g ai/ha, 0 to 100 scale (0 no effect, 100 complete control)
Please go through the items and note down their Plant response rating, Crabgrass, Large.
One number for each entry.

See these solved cases before continuing.
[
  {
    "compound": "CC1(C)CC([S+]([O-])Cc2c(C(F)(F)F)nc3n(c2=O)CCS3)=NO1 (centres unmarked) [Compound 5]",
    "quantitative.result": 70
  },
  {
    "compound": "CC1(C)CC(S(=O)(=O)Cc2c(C(F)(F)F)nc3ccon3c2=O)=NO1 [Compound 42]",
    "quantitative.result": 70
  }
]

Please give Plant response rating, Crabgrass, Large for each item listed below.
1. CC1(C)CC(S(=O)(=O)Cc2c(C(F)(F)F)nc3n(c2=O)CCS3)=NO1 [Compound 6]
2. CC1(C)CC(S(=O)(=O)Cc2c(C(F)(F)F)nc3ccsn3c2=O)=NO1 [Compound 16]
3. CC1(C)CC([S+]([O-])Cc2c(C(F)(F)C(F)(F)F)nc3n(c2=O)CCS3)=NO1 (centres unmarked) [Compound 41]
4. CC1(C)CC(S(=O)(=O)Cc2c(C(F)(F)F)nc3n(c2=O)CCO3)=NO1 [Compound 2]
5. CC1(C)CC(S(=O)(=O)Cc2c(C(F)(F)F)nc3n(c2=O)CCCC3)=NO1 [Compound 8]

RESULT:
1: 90; 2: 90; 3: 50; 4: 90; 5: 90

QUERY: Quick check: Plant response rating, Crabgrass, Large on large crabgrass (Digitaria sanguinalis), item CC1(C)CC(S(=O)(=O)Cc2c(C(F)(F)C(F)(F)F)nc3n(c2=O)CCC3)=NO1 [Compound 22] ?
RESULT: 80

Where do these numbers come from? They come from patent US20100099561A1.
